All values here come from patent US20230203146A1.

# maps each entry to its % inh
target: FLAG tagged human Ang2 (Alexis Biochemicals) (human) (UniProt O15123); test: AlphaScreen competition, periplasmic extract, FLAG-hAng2 / biotin-hTie2/Fc
Sequence (O15123 19-496): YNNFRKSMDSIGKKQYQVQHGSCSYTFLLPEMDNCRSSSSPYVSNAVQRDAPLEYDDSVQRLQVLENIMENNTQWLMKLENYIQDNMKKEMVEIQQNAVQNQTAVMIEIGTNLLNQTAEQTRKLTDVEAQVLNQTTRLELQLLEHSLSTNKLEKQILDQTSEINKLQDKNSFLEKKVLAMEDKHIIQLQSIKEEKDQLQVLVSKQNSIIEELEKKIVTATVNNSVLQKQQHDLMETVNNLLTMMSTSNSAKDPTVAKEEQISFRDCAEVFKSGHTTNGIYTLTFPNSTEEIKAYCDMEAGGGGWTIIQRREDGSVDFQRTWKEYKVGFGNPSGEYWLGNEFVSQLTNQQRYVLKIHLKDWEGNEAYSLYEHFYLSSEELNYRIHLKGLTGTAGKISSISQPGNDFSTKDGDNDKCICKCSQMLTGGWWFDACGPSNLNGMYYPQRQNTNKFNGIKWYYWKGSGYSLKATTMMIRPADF
Metric: % inh (%)

| Binder | Recorded Measurement |
| --- | --- |
| VHH 29B08 (VHH, not shown: small tags and cut ends) VHH: EVQLVESGGGVVQAGDSVRLSCAASGPTFRSYTMAWFRQTPGKERDIVAAISSSLGRTYYADSVKGRFQILRDNAKETVWLQMNSLKPEDTAVYICAASRSLNLAYTTKPYDYWGQGTQVTVSS | 60 |
| VHH 23C10 (VHH, not shown: small tags and cut ends) VHH: EVQLVESGGGLVQPGGSLRLSCAASGFALDYYAIGWFRQAPGKEREGVSCISSSDGSTYYADSVKGRFTISRDNAKNTVYLQMNSLKPEDTAVYYCATDSLGYGSSCRMAPYEYDYWGQGTQVTVSS | 57 |
| VHH 22G11 (VHH, not shown: small tags and cut ends) VHH: EVQLVESGGGLVQAGGSLRLSCAVSGFTFDDYAIGWFRQAPGKEREGVSCISRSDGSPYYADSVKGRFTISSDNAKGTVYLQMSSLKPEDTAVYYCAASWSGAYYSGTYYCDRLYEYDAWGQGTQVTVSS | 96 |
| VHH 10A03 (VHH, not shown: small tags and cut ends) VHH: EVQLVESGGGSVQAGGSLRLSCAASERTFSPYAMGWFRQAPGKEREFVAHITWSAGSTYYADSVKGRFTISRDNAKNTVYLQMNSLKPEDTAVYYCAAKRRYGIVDRDYNDWGQGTQVTVSS | 67 |
